target: Human Factor B (human) (UniProt P00751); experiment: cell-based or functional assay
Sequence (P00751 26-764 limits assumed): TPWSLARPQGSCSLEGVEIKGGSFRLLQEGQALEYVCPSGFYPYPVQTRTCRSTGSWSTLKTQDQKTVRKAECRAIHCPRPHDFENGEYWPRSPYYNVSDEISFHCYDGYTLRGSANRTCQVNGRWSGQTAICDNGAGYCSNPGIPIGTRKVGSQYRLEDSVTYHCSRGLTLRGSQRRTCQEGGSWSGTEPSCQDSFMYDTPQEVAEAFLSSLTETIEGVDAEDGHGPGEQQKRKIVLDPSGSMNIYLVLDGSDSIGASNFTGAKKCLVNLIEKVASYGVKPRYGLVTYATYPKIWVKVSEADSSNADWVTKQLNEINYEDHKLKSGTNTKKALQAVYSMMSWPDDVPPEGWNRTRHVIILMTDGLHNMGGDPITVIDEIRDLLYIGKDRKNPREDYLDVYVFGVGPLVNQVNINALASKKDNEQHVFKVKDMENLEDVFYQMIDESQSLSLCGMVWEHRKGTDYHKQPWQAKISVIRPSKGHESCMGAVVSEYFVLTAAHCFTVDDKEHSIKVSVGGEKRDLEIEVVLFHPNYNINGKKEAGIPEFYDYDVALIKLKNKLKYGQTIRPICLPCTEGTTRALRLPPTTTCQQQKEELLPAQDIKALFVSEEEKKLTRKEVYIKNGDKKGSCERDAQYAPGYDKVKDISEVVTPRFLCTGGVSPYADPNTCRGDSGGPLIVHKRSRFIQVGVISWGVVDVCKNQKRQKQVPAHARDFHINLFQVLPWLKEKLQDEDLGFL
Class assignment keyed on fB Cleavage EC50, ranges LOW (below 0.6 µM), MEDIUM (0.6 µM to below 7 µM), HIGH (7 µM or more)

Query :: Category of chymase C22S/F41R/L99H/G151T/F173L/Y215K/A226R (enzyme) IIGGTESKPHSRPYMAYLEIVTSNGPSKRCGGFLIRRNFVLTAAHCAGRSITVTLGAHNITEEEDTWQKLEVIKQFRHPKYNTSTHHHDIMLLKLKEKASLTLAVGTLPFPSQFNFVPPGRMCRVAGWGRTGVLKPTSDTLQEVKLRLMDPQACSHLRDFDHNLQLCVGNPRKTKSAFKGDSGGPLLCAGVAQGIVSKGRSDAKPPRVFTRISHYRPWINQILQAN :
Result :: MEDIUM

Query :: Please indicate the class for chymase C22S/L160V/S189T/A226R (enzyme) IIGGTESKPHSRPYMAYLEIVTSNGPSKFCGGFLIRRNFVLTAAHCAGRSITVTLGAHNITEEEDTWQKLEVIKQFRHPKYNTSTLHHDIMLLKLKEKASLTLAVGTLPFPSQFNFVPPGRMCRVAGWGRTGVLKPGSDTLQEVKVRLMDPQACSHFRDFDHNLQLCVGNPRKTKTAFKGDSGGPLLCAGVAQGIVSYGRSDAKPPRVFTRISHYRPWINQILQAN based on its fB Cleavage EC50.
Result :: MEDIUM

Query :: Hi, small favor: classify chymase C22S/K40L/F41V/G151R/K192R/A226R (enzyme) IIGGTESKPHSRPYMAYLEIVTSNGPSLVCGGFLIRRNFVLTAAHCAGRSITVTLGAHNITEEEDTWQKLEVIKQFRHPKYNTSTLHHDIMLLKLKEKASLTLAVGTLPFPSQFNFVPPGRMCRVAGWGRTGVLKPRSDTLQEVKLRLMDPQACSHFRDFDHNLQLCVGNPRKTKSAFRGDSGGPLLCAGVAQGIVSYGRSDAKPPRVFTRISHYRPWINQILQAN by its fB Cleavage EC50 when you get a moment.
Result :: HIGH

Query :: Form field 'band' for chymase C22S/F41G/L99H/G151T/F173L/Y215K/A226R (enzyme) IIGGTESKPHSRPYMAYLEIVTSNGPSKGCGGFLIRRNFVLTAAHCAGRSITVTLGAHNITEEEDTWQKLEVIKQFRHPKYNTSTHHHDIMLLKLKEKASLTLAVGTLPFPSQFNFVPPGRMCRVAGWGRTGVLKPTSDTLQEVKLRLMDPQACSHLRDFDHNLQLCVGNPRKTKSAFKGDSGGPLLCAGVAQGIVSKGRSDAKPPRVFTRISHYRPWINQILQAN
Result :: HIGH

Query :: Which category does the recorded fB Cleavage EC50 put chymase C22S/P38Q/H100P/L116R/F123L/Q180H/A226R/R235S (enzyme) IIGGTESKPHSRPYMAYLEIVTSNGQSKFCGGFLIRRNFVLTAAHCAGRSITVTLGAHNITEEEDTWQKLEVIKQFRHPKYNTSTLPHDIMLLKLKEKASLTRAVGTLPLPSQFNFVPPGRMCRVAGWGRTGVLKPGSDTLQEVKLRLMDPQACSHFRDFDHNLHLCVGNPRKTKSAFKGDSGGPLLCAGVAQGIVSYGRSDAKPPRVFTRISHYSPWINQILQAN in?
Result :: MEDIUM

Query :: Note: place this binder into its band. Item: chymase C22S/P38Q/K40L/F41R/V138I/F173L/D175H/A190S/V213A/S218V/A226R (enzyme) IIGGTESKPHSRPYMAYLEIVTSNGQSLRCGGFLIRRNFVLTAAHCAGRSITVTLGAHNITEEEDTWQKLEVIKQFRHPKYNTSTLHHDIMLLKLKEKASLTLAVGTLPFPSQFNFVPPGRMCRIAGWGRTGVLKPGSDTLQEVKLRLMDPQACSHLRHFDHNLQLCVGNPRKTKSSFKGDSGGPLLCAGVAQGIASYGRVDAKPPRVFTRISHYRPWINQILQAN
Result :: LOW

Query :: Which category does the recorded fB Cleavage EC50 put chymase C22S/F41G/L99H/F173L/Y215K/A226R (enzyme) IIGGTESKPHSRPYMAYLEIVTSNGPSKGCGGFLIRRNFVLTAAHCAGRSITVTLGAHNITEEEDTWQKLEVIKQFRHPKYNTSTHHHDIMLLKLKEKASLTLAVGTLPFPSQFNFVPPGRMCRVAGWGRTGVLKPGSDTLQEVKLRLMDPQACSHLRDFDHNLQLCVGNPRKTKSAFKGDSGGPLLCAGVAQGIVSKGRSDAKPPRVFTRISHYRPWINQILQAN in?
Result :: HIGH

Query :: Returns: class label. Input: chymase C22S/P38Q/K40L/F41R/V138I/D175N/A190S/V213A/S218V/A226R (enzyme) IIGGTESKPHSRPYMAYLEIVTSNGQSLRCGGFLIRRNFVLTAAHCAGRSITVTLGAHNITEEEDTWQKLEVIKQFRHPKYNTSTLHHDIMLLKLKEKASLTLAVGTLPFPSQFNFVPPGRMCRIAGWGRTGVLKPGSDTLQEVKLRLMDPQACSHFRNFDHNLQLCVGNPRKTKSSFKGDSGGPLLCAGVAQGIASYGRVDAKPPRVFTRISHYRPWINQILQAN
Result :: LOW

Query :: Tag the class for chymase C22S/P38Q/K40L/F41R/V138I/F173M/D175N/A190S/V213A/S218L/A226R (enzyme) IIGGTESKPHSRPYMAYLEIVTSNGQSLRCGGFLIRRNFVLTAAHCAGRSITVTLGAHNITEEEDTWQKLEVIKQFRHPKYNTSTLHHDIMLLKLKEKASLTLAVGTLPFPSQFNFVPPGRMCRIAGWGRTGVLKPGSDTLQEVKLRLMDPQACSHMRNFDHNLQLCVGNPRKTKSSFKGDSGGPLLCAGVAQGIASYGRLDAKPPRVFTRISHYRPWINQILQAN
Result :: LOW

Query :: Input chymase C22S/L99R/F173Y/K192R/S218L/A226R (enzyme) IIGGTESKPHSRPYMAYLEIVTSNGPSKFCGGFLIRRNFVLTAAHCAGRSITVTLGAHNITEEEDTWQKLEVIKQFRHPKYNTSTRHHDIMLLKLKEKASLTLAVGTLPFPSQFNFVPPGRMCRVAGWGRTGVLKPGSDTLQEVKLRLMDPQACSHYRDFDHNLQLCVGNPRKTKSAFRGDSGGPLLCAGVAQGIVSYGRLDAKPPRVFTRISHYRPWINQILQAN ; output its category
Result :: LOW
